B1: MCOLN1 (parent)
chain: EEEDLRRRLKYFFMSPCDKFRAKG

Variants of: B1
Assay: protein stability index of a GFP-peptide fusion (GPS, HEK-293T) (PSI 1-6); higher = more stable;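 also: lentivirally expressed fusions sorted by FACS into six bins by GFP to DsRed ratio, PSI derived from sequencing read proportions per bin multiplied by bin number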
Conditions: c terminus: a fixed tail appended
So basically: protein stability index at 2 or higher? That is true (1). Lower than 2? That is false (0).

Dear colleague, could you confirm whether `R8I` has protein stability index at or above 2? false (0)

Say whether `R8E` shows protein stability index of 2 or more. true (1)

Dear colleague, could you confirm whether `E2G` has protein stability index at or above 2? false (0)

State whether the measured protein stability index reaches 2, counting equality as reaching it, for `K23T` true (1)

Identify whether the reported protein stability index of the following variant is 2 or greater: `R7K` true (1)

Hi team, for `Y11S` , is the recorded protein stability index at or above 2? true (1)
